All figures here come from patent US20170137410A1.

# testTarget: activated IGF-1R (Homo sapiens, UniProt P08069)
# Construct: purchased Millipore 14-802
# Sequence (P08069 31-1367): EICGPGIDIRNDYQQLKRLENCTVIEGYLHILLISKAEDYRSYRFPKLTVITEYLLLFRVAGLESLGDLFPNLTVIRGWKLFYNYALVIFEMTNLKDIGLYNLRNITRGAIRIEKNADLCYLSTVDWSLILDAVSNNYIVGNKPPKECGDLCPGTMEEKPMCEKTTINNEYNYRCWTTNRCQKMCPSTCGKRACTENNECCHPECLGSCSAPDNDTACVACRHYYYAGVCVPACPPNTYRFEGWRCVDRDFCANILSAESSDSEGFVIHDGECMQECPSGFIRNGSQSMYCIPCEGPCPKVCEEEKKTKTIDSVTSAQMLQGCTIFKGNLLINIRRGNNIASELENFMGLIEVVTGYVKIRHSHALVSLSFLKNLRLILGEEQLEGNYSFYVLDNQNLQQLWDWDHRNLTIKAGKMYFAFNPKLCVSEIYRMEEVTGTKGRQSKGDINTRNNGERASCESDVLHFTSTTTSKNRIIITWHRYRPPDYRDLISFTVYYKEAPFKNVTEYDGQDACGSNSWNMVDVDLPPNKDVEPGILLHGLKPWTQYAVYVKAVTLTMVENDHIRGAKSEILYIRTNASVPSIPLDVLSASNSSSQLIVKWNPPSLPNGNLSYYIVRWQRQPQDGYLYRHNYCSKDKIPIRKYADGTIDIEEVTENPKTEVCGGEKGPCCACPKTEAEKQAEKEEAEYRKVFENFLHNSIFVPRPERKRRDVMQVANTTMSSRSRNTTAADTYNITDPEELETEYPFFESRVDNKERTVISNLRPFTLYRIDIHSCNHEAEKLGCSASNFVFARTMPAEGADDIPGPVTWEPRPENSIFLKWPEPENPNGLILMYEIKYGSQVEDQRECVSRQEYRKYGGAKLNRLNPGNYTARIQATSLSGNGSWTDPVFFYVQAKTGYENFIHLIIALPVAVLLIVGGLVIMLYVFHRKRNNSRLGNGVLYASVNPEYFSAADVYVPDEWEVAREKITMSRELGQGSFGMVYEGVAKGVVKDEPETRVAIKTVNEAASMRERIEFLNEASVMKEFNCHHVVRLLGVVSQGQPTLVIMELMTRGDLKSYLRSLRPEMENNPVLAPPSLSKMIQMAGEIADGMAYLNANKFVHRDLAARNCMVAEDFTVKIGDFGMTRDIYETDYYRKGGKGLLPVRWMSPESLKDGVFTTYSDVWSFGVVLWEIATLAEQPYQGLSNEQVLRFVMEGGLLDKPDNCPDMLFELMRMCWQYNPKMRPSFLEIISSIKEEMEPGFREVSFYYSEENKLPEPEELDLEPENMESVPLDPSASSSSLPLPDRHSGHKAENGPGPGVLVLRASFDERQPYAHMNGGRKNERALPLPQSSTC
# testName: In vitro IGF-1R enzymatic assay (ADP-Glo)
# Format: biochemical
# experimentalContext: compound 1 μM, ATP 100 μM
reportedEndpoint: inhibition at 1 µM (%)

{"columns": ["compound", "testTarget", "unitAnnotation", "assayResult"],
 "data": [
  ["CC(=O)N1CCN(C(=O)[C@@H]2CCCN2c2nc3c(c(Nc4cc(C5CCCC5)n[nH]4)n2)CCC3)CC1 [137b]", "activated IGF-1R (Homo sapiens, UniProt P08069)", "%", 10]
]}

P = CC(C)c1cc(Nc2nc(N3CCC[C@H]3C(=O)N(C)c3nccs3)nc3c2CCC3)n[nH]1 [68b]
Q = CN1CCN(C(=O)[C@@H]2CCCN2c2nc3c(c(Nc4cc(C5CCCC5)n[nH]4)n2)CCC3)CC1=O [136b]
R = CC1(C)CCN(C(=O)[C@H]2CCCN2c2nc3c(c(Nc4cc(C5CCCC5)n[nH]4)n2)CCC3)CC1 [141a]
Exercise: # rank by inhibition at 1 µM, ascending (min first) // rank by listing labels in the order requested
Key: Q, R, P
(Q: 15%, R: 27%, P: 84%)

1 = O=C([C@@H]1CCCN1c1nc2c(c(Nc3cc(C4CCCC4)[nH]n3)n1)CCC2)N1CC(F)(F)C(F)(F)C1 [110b]
2 = CN1CCN(C(=O)[C@H]2CCCN2c2nc3c(c(Nc4cc(C5CCCC5)n[nH]4)n2)CCC3)CC1=O [136a]
3 = O=C([C@H]1CCCN1c1nc2c(c(Nc3cc(C4CCCC4)[nH]n3)n1)CCC2)N1CC(F)(F)C(F)(F)C1 [110a]
4 = CN1CCN(C(=O)[C@@H]2CCCN2c2nc3c(c(Nc4cc(C5CCCC5)[nH]n4)n2)CCC3)CC1 [134b]
Exercise: Please rank these compounds by inhibition at 1 µM in descending order. // rank by listing labels in the order requested
Key: 2, 3, 4, 1
(2: 72%, 3: 31%, 4: 16%, 1: 1%)

P = O=C([C@@H]1CCCN1c1nc2c(c(Nc3cc(C4CCCC4)[nH]n3)n1)CCC2)N1CCC(F)(F)C1 [109b]
Q = CN(C(=O)[C@@H]1CCCN1c1nc2c(c(Nc3cc(C4CCCC4)n[nH]3)n1)CCC2)c1nccs1 [70b]
Exercise: # argmax over inhibition at 1 µM for candidates P and Q # answer = label of selected item
Key: Q

----------
# testTarget: activated IGF-1R (Homo sapiens)
# Construct: purchased Millipore 14-802
# testName: In vitro IGF-1R enzymatic assay (ADP-Glo)
# Assay type: biochemical
# experimentalContext: compound 10 μM, ATP 100 μM
reportedEndpoint: inhibition at 10 µM (%)

{"columns": ["compound", "unitAnnotation", "assayResult"],
 "data": [
  ["O=C([C@H]1CCCN1c1nc2c(c(Nc3cc(C4CCCC4)[nH]n3)n1)CCC2)N1CC(F)(F)C(F)(F)C1 [110a]", "%", 83],
  ["CC(C)c1cc(Nc2nc(N3CCC[C@H]3C(=O)N3CCCC3)nc3c2CCC3)n[nH]1 [138b]", "%", 80],
  ["CN1CCN(C(=O)[C@@H]2CCCN2c2nc3c(c(Nc4cc(C5CCCC5)[nH]n4)n2)CCC3)CC1 [134b]", "%", 55],
  ["CN(C)C(=O)[C@H]1CCCN1c1nc2c(c(Nc3cc(C4CCOCC4)[nH]n3)n1)CCC2 [91a]", "%", 14],
  ["CC(C)c1cc(Nc2nc(N3CCC[C@@H]3C(=O)N3CCCC3)nc3c2CCC3)n[nH]1 [138a]", "%", 83]
]}

A = CN1CCN(C(=O)[C@@H]2CCCN2c2nc3c(c(Nc4cc(C5CCCC5)n[nH]4)n2)CCC3)CC1=O [136b]
B = CC1(C)CCN(C(=O)[C@H]2CCCN2c2nc3c(c(Nc4cc(C5CCCC5)n[nH]4)n2)CCC3)CC1 [141a]
Exercise: Looking only at measured inhibition at 10 µM, which entry is lower, A or B ? # answer = label of selected item
Key: A
